- Test system: giant foxtail
- measurement_protocol: Test B pre/postemergence giant foxtail
- Type: in vivo, Setaria faberii
- condition_parameters: Preemergence, Rate 125 g/ha; scale of 0 to 10 where 0 is no effect and 10 is complete control
Cut-off 9 on Plant response rating, Giant foxtail: below means 1.0, at or above means 0.0.

Study these solved cases before continuing.
molecule	category_label
CCOP(=O)(Cn1c(=O)on(C(=O)N(c2ccccc2)C(C)C)c1=O)OCC [Compound 447]	1.0
CC(C)N(C(=O)n1oc(=O)n(C(CF)CCl)c1=O)c1ccc(F)cc1 (racemic) [Compound 707]	0.0
COC(=O)C(CCO)n1c(=O)on(C(=O)N(c2ccc(Cl)cc2)C(C)C)c1=O (stereo not shown) [Compound 679]	1.0
CC(C)N(C(=O)n1oc(=O)n(CCCCl)c1=O)c1ccc(F)cc1 [Compound 713]	0.0

Okay, now this molecule:
Q: Report whether reported Plant response rating, Giant foxtail is lower than 9 (strictly) for CC[Si](C)(C)Cn1c(=O)on(C(=O)N(c2ccc(Cl)cc2)C(C)C)c1=O [Compound 460]
Result: 1.0

====

- Test system: wild oat
- measurement_protocol: Test B pre/postemergence wild oat
- Assay type: in vivo, Avena fatua
- condition_parameters: Preemergence, Rate 62 g/ha; scale of 0 to 10 where 0 is no effect and 10 is complete control
reported_endpoint: Wild oats plant response rating
Answers are plain numbers.

compound	measured
CC(C)N(C(=O)n1oc(=O)n(COCc2ccccc2)c1=O)c1ccc(F)cc1 [Compound 261]	0
CC1Cc2cccc(-n3c(=O)on(C(=O)N(c4ccc(F)cc4)C(C)C)c3=O)c2O1 (stereo not drawn) [Compound 281]	0
CC(C)N(C(=O)n1oc(=O)n(CCCCF)c1=O)c1ccc(F)cc1 [Compound 289]	1
COC(=O)C=CCn1c(=O)on(C(=O)N(c2ccc(F)cc2)C(C)C)c1=O [Compound 263]	0
CCN(Cc1ccccc1)C(=O)n1oc(=O)n(C(C)C)c1=O [Compound 166]	0

Provide reported Wild oats plant response rating for each item, in the same order as listed.
1. CCN(C(=O)n1oc(=O)n(C(C)C)c1=O)C1CCCCC1 [Compound 309]
2. CC(C)N(C(=O)n1oc(=O)n(Cc2ccccn2)c1=O)c1ccc(F)cc1 [Compound 267]
3. CC(C)N(C(=O)n1oc(=O)n(CCC2OCCO2)c1=O)c1ccc(F)cc1 [Compound 219]
4. CC(C)N(C(=O)n1oc(=O)n(Cc2nnc(Cl)s2)c1=O)c1ccccc1 [Compound 654]

Result:
1: 0; 2: 0; 3: 2; 4: 0

====

- Tested on: bamyardgrass
- measurement_protocol: Test B flood test barnyardgrass
- Type: in vivo, Echinochloa crus-galli
- condition_parameters: flood test, listed under Postemergence, Rate 250 g/ha; scale 0 to 10, 0 no effect, 10 complete control
reported_endpoint: Barnyardgrass plant response rating
Give bare numbers.

Solved cases below.
COc1ccc(-n2c(=O)on(C(=O)N(c3ccc(F)cc3)C(C)C)c2=O)c(OC)c1 3
COc1cccc(C)c1-n1c(=O)on(C(=O)N(c2ccccc2)C(C)C)c1=O 0
COc1cccc(C)c1-n1c(=O)on(C(=O)N(c2ccc(F)cc2)C(C)C)c1=O 0

Shifting focus to the compound that follows.
Q: Quick one: Barnyardgrass plant response rating of COc1ccc(-n2c(=O)on(C(=O)N(c3ccc(F)cc3)C(C)C)c2=O)cc1 ?
Result: 0

====

- Test system: giant foxtail
- measurement_protocol: Test B pre/postemergence giant foxtail
- Format: in vivo, Setaria faberii
- condition_parameters: Preemergence, Rate 250 g/ha; scale of 0 to 10 where 0 is no effect and 10 is complete control
reported_endpoint: Giant foxtail plant response rating

Provide reported Giant foxtail plant response rating for each item, in the same order as listed.
1. Cc1ccccc1-n1c(=O)on(C(=O)N(c2ccc(C(C)C)cc2)C(C)C)c1=O
2. CC1Cc2cccc(-n3c(=O)on(C(=O)N(c4ccc(F)cc4)C(C)C)c3=O)c2O1 (centres unmarked)
3. CC(C)N(C(=O)n1oc(=O)n(Cc2ccccn2)c1=O)c1ccc(F)cc1

Result:
[3, 10, 9]

Provide reported Giant foxtail plant response rating for each item, in the same order as listed.
1. CC(C)N(C(=O)n1oc(=O)n(C2CC3CCC2C3)c1=O)c1ccccc1 (centres unmarked)
2. CC(C)N(C(=O)n1oc(=O)n(C2(C)CC2)c1=O)c1ccc(Cl)cc1

Result:
1: 8; 2: 10

Provide reported Giant foxtail plant response rating for each item, in the same order as listed.
1. CC(C)N(C(=O)n1oc(=O)n(N2C(C)CCCC2C)c1=O)c1ccc(F)cc1F (centres unmarked)
2. CC(C)N(C(=O)n1oc(=O)n(CC2CCOC2)c1=O)c1ccc(F)cc1 (centres unmarked)
3. CCOC(=O)C(C)N(C(=O)n1oc(=O)n(C)c1=O)c1ccc(F)cc1 (centres unmarked)

Result:
1: 10; 2: 10; 3: 0

====

- Test system: bamyardgrass
- measurement_protocol: Test B flood test barnyardgrass
- Format: in vivo, Echinochloa crus-galli
- condition_parameters: Rate 500 g/ha; Pre-emergence; flood test species; scale 0 to 10 (0 no effect, 10 complete control)
Record form. Attribute: Barnyardgrass plant response rating. Fill in for each entry.
Numbers only.

Solved cases below.
compound	Barnyardgrass plant response rating
CC1CC1n1c(=O)on(C(=O)N(c2ccccc2)C(C)C)c1=O (centres unmarked)	0
CC(C)N(C(=O)n1oc(=O)n(CC#N)c1=O)c1ccc(F)cc1	0

Provide reported Barnyardgrass plant response rating for each item, in the same order as listed.
1. CC(C)N(C(=O)n1oc(=O)n(C2CC3CCC2C3)c1=O)c1ccccc1 (centres unmarked)
2. COC(OC)C(C)n1c(=O)on(C(=O)N(c2ccc(F)cc2)C(C)C)c1=O (centres unmarked)
3. CC(C)N(C(=O)n1oc(=O)n(C)c1=O)c1ccc(F)cc1F

Result:
1. 0
2. 0
3. 7

====

- Test system: soybean
- measurement_protocol: Test B pre/postemergence soybean
- Type: in vivo, Glycine max
- condition_parameters: Preemergence, Rate 125 g/ha
Record form. Attribute: Soybean plant response rating (0 to 10 scale). Fill in for each entry.
Give bare numbers.

Solved cases below.
compound	measured
CC(C)N(C(=O)n1oc(=O)n(N2CCOCC2)c1=O)c1ccc(F)cc1	0
CC1CC1n1c(=O)on(C(=O)N(c2ccc(F)cc2F)C(C)C)c1=O (stereo not drawn)	0
Cc1cccc(C(C)(C)C)c1-n1c(=O)on(C(=O)N(c2ccccc2)C(C)C)c1=O	0
CC(C)N(C(=O)n1oc(=O)n(CC2CCCO2)c1=O)c1ccc(F)cc1 (stereo not drawn)	0
CCOC(=O)C(C)N(C(=O)n1oc(=O)n(C)c1=O)c1ccc(F)cc1 (stereo not drawn)	0

Shifting focus to the compound that follows.
Q: Quick one: Soybean plant response rating (0 to 10 scale) of COCC(C)n1c(=O)on(C(=O)N(c2ccc(F)cc2F)C(C)C)c1=O (stereo not drawn) ?
Result: 0

====

- Test system: smallflower flatsedge
- measurement_protocol: Test B flood test smallflower flatsedge
- Assay type: in vivo, Cyperus difformis
- condition_parameters: Rate 125 g/ha; Pre-emergence; flood test species; scale 0 to 10 where 0 is no effect and 10 is complete control
reported_endpoint: S. Flatsedge plant response rating

Solved cases below.
compound	reported_endpoint	measured
CC(C)N(C(=O)n1oc(=O)n(Cc2nnsc2Cl)c1=O)c1ccc(F)cc1F [Compound 320]	S. Flatsedge plant response rating	0
CCC(CC)n1c(=O)on(C(=O)N(c2ccc(F)cc2)C(C)C)c1=O [Compound 358]	S. Flatsedge plant response rating	6

Provide reported S. Flatsedge plant response rating for each item, in the same order as listed.
1. Cc1nc(C)c(Cn2c(=O)on(C(=O)N(c3ccc(F)cc3F)C(C)C)c2=O)s1 [Compound 233]
2. Cc1ccccc1-n1c(=O)on(C(=O)N(c2ccc(F)cc2Cl)C(C)C)c1=O [Compound 186]
3. Cc1cccc(C(C)(C)C)c1-n1c(=O)on(C(=O)N(c2ccccc2)C(C)C)c1=O [Compound 303]
4. CC(C)N(C(=O)n1oc(=O)n(Cc2ccccc2-c2ccccc2)c1=O)c1ccc(F)cc1 [Compound 313]

Result:
1: 0; 2: 0; 3: 0; 4: 0

====

- Tested on: bedstraw
- measurement_protocol: Test B pre/postemergence bedstraw
- Format: in vivo, Galium aparine
- condition_parameters: Rate 125 g/ha, Postemergence; scale 0 to 10
reported_endpoint: Bedstraw plant response rating

Solved cases below.
compound	Bedstraw plant response rating
COC(=O)C=CCn1c(=O)on(C(=O)N(c2ccc(F)cc2)C(C)C)c1=O [Compound 263]	0
[2H]C([2H])([2H])n1c(=O)on(C(=O)N(c2ccc(F)cc2)C(C)C)c1=O [Compound 245]	9

Provide reported Bedstraw plant response rating for each item, in the same order as listed.
1. Cc1nc(C)c(Cn2c(=O)on(C(=O)N(c3ccc(F)cc3F)C(C)C)c2=O)s1 [Compound 233]
2. CCCCCCCCCCCCCCCCCCCn1c(=O)on(C(=O)N(c2ccc(F)cc2)C(C)C)c1=O [Compound 253]
3. COc1cc(C)cc(C)c1-n1c(=O)on(C(=O)N(c2ccc(F)cc2)C(C)C)c1=O [Compound 222]
4. Cc1ccccc1-n1c(=O)on(C(=O)N(c2ccc(F)cc2Cl)C(C)C)c1=O [Compound 186]
5. Cc1ccccc1-n1c(=O)on(C(=O)N(c2ccc(C(C)C)cc2)C(C)C)c1=O [Compound 231]

Result:
1: 0; 2: 0; 3: 3; 4: 0; 5: 0
